System: P. falciparum stage V gametocytes
Test: Gametocytocidal ATP bioluminescence assay (single point 5 μM and 1 μM, dose-response)
Type: cell-based, Plasmodium falciparum
Conditions: P. falciparum gametocytes, 5 μM single concentration, 48 h, decrease of ATP level (S1 Table)
Reported % Inhibition values for the following compounds.
Unit % implied. Number only.

Look over these answered cases.
compound="Cc1cccc(CN2CCCN(Cc3cccc(C(=O)Nc4ccc(C(C)(C)C)cc4)c3)CC2)c1 [TCMDC-135984]" outcome_measure="% Inhibition" numeric_result=-91
compound="Cc1cccc(C(=O)Nc2ccnc(N3CCC(N(C)Cc4cccc(C#N)c4)CC3)c2)c1 [TCMDC-134973]" outcome_measure="% Inhibition" numeric_result=-4.57
compound="COc1cc(C(=O)NC2CCN(Cc3ccccc3)CC2)ccc1-c1nc2cc(Cl)c(Cl)cc2[nH]1 [TCMDC-140078]" outcome_measure="% Inhibition" numeric_result=-56

Q) Identify % Inhibition associated with the compound COc1cc(C(=O)NCCCN2CCN(c3cc(Cl)ccc3OC)CC2)ccc1-c1nc2cc(Cl)c(Cl)cc2[nH]1 [TCMDC-140079]
A) 4.42

Q) Using the record for Cc1ccc(Oc2ncccc2C(=O)Nc2cccc3cccnc23)c(C)c1 [TCMDC-125499] , state its measured % Inhibition.
A) -13

====

System: P. falciparum stage V gametocytes
Assay: microbe, parasite or virus in culture
Design: BacTiter-Glo ATP luminescence viability of purified stage V gametocytes in 384-well plates, per cent inhibition versus DMSO
Settings: Plasmodium falciparum, 48 h, read-out: % Inhibition
inhibition at 5 µM values, listed per item
Output spec: scalar in %, unitless text.

Consider the following illustrative entries.
compound=COc1ccc2c(NN=Cc3cccc(F)c3)ccnc2c1 numeric_result=99
compound=COc1ccc(C=Cc2cc(N)c3ccccc3n2)cc1 numeric_result=97.9
compound=COc1ccc(C=Cc2cc(N)c3ccccc3n2)cc1Br numeric_result=39.4
compound=COc1ccc2c(NN=Cc3cccc(C)n3)cc(-c3ccccc3)nc2c1 numeric_result=-50.4
compound="CC(C)(C)NCC(O)COc1ccc(Cl)cc1C1=NNC(=O)CC1 (stereo not shown)" numeric_result=8.53
compound=COc1ccccc1CNc1nc(Nc2ccccc2C)nc2ccccc12 numeric_result=93.6

Now let's try a different one.
Q) Query inhibition at 5 µM for c1ccc2c3c(ccc2c1)Sc1c(ccc2ccccc12)N3
A) -92.1

====

System: HepG2 cells
Experiment: Cytotoxicity in HepG2 cells (intracellular ATP, ATPlite, 48 h)
Assay type: cell-based, human
Settings: HepG2 cells; IC50 per ratio column head; unit inferred
Each entry below carries its reported IC50.
Give your result in µM as a bare value.

Consider the worked cases shown below.
compound=CN1CCN(CCCNCc2cccc(Nc3nccc(Nc4ccc(Oc5ccccc5)cc4)n3)c2)CC1 tgt="HepG2 cells" outcome_measure=IC50 numeric_result=5.17
compound=CN(C)CCCn1c(N)c(-c2nc3ccccc3[nH]2)c2nc(C#N)c(C#N)nc21 tgt="HepG2 cells" outcome_measure=IC50 numeric_result=6.93
compound=COc1cccc(CCc2c(CCNCCCCCCNCCc3ccccc3)ccc(OC)c2OC)c1 tgt="HepG2 cells" outcome_measure=IC50 numeric_result=7.7
compound=CCCCCCN=C(N)c1ccc(OCCCCCOc2ccc(C(N)=NCCCCCC)cc2)cc1 tgt="HepG2 cells" outcome_measure=IC50 numeric_result=5.39

Q) Assign IC50 to the following record: Cc1ccc(C(=O)Nc2ccc(Nc3ccnc4cc(-c5ccccn5)ccc34)cc2O)cc1
A) 3.11

Q) Please give the documented IC50 of C=CCNC(CCCCC)c1ccc(OCCOc2ccc(C(CCCCC)NCC=C)cc2)cc1 (centres unmarked)
A) 5.8

Q) Give the reported IC50 for this compound. CCN(CC)CCCNc1nccc(N2CCc3ncnc(Nc4ccc(OCc5cccc(F)c5)c(Cl)c4)c3C2)n1
A) 5.58

====

System: P. falciparum stage V gametocytes
Assay: Gametocytocidal ATP bioluminescence assay (single point 5 μM and 1 μM, dose-response)
Type: cell-based, Plasmodium falciparum
Details: Plasmodium falciparum; P. falciparum gametocytes; average; read-out: IC50 Pf Gametocytes average, IC50 (µM) average
Property: IC50; scope: individual compounds
Numeric answer only, unit µM assumed.

Q) Name the recorded IC50 of the item CC(C)CCNC(=N)Nc1ccc(OCCCCCOc2ccc(NC(=N)NCCC(C)C)cc2)cc1 in your answer.
A) 0.51

Q) Indicate the recorded IC50 value for this compound: COc1ccc(CNC2Cc3ccccc3C2)cc1-c1ccc(OC)c(S(=O)(=O)NCCN2CCCC2)c1
A) 1.14

Q) Could you please provide reported IC50 for Cc1ccnc(Nc2nc(-c3ccccn3)cs2)c1 ? Thanks!
A) 0.0433

Q) Specify IC50 for COc1ccc(C[C@H](N)C(=O)N[C@H]2[C@@H](O)[C@H](n3cnc4c(N(C)C)ncnc43)O[C@@H]2CO)cc1 and stop.
A) 0.56

Q) Please give measured IC50 of the following entry: CC1CCCCN1CCCNc1nc(NCc2ccccc2)c2ccccc2n1 (stereo not drawn)
A) 0.14

Q) # return recorded IC50 for input COc1cc2nc(N3CCN(C(=O)c4c(Cl)nsc4-c4ccccc4Cl)CC3)nc(N)c2cc1OC.O=C(O)C(F)(F)F
A) 0.22

====

System: luciferase reaction (BacTiter-Glo)
Assay: Interference assay (inhibition of the BacTiter-Glo luciferase reaction)
Type: biochemical
Parameters: concentration or dose not given beside the values
Conditions: ATP interference assay
Outcome measure: % Control luminiscence

// worked examples, % Control luminiscence included
compound="N=C(NCC1CC1c1ccccc1)c1cccc(C(=N)NCC2CC2c2ccccc2)n1 (centres unmarked) [TCMDC-137456]" outcome_measure="% Control luminiscence" result=100%
compound="Cc1[nH]c2ccccc2c1C(=O)C(C)Sc1nnc(-c2ccccc2Br)[nH]1 (centres unmarked) [TCMDC-125114]" outcome_measure="% Control luminiscence" result=99%
compound="COCCn1c(-c2cccc(Cl)c2)nn(-c2ccc([N+](=O)[O-])cc2C#N)c1=S [TCMDC-134719]" outcome_measure="% Control luminiscence" result=97%

Q) Could you please provide reported % Control luminiscence for CC(C)CNCc1ccc(-c2ccc(CN(CCCN3CCN(C)CC3)C(=O)/C=C/c3ccccc3)cc2)cc1 [TCMDC-140546] ? Thanks!
A) 100%

Q) Assign % Control luminiscence to the following record: Cc1ccc(-n2c(C)nc3c(Nc4ccc(-c5ccncc5)cc4)ncnc32)c(C)c1 [TCMDC-136289]
A) 100%

====

System: P. falciparum stage V gametocytes
Experiment: microbe, parasite or virus in culture
Design: BacTiter-Glo ATP luminescence viability of purified stage V gametocytes in 384-well plates, per cent inhibition versus DMSO
Conditions: Plasmodium falciparum, 48 h, read-out: % Inhibition
Threshold rule: inhibition at 5 µM greater than or equal to 20% is class 1; below that, class 0.

Answered cases to consult:
molecule=Fc1ccc2c(NN=Cc3ccccc3)ccnc2c1 group="class 0"
molecule=CCOc1ccc2c(NN=Cc3cccc(F)c3)cc(C)nc2c1 group="class 0"
molecule=CCOc1ccc2c(NN=Cc3c4ccccc4cc4ccccc34)cc(C)nc2c1 group="class 1"

Q) Hello, I need to know if CCn1c2ccccc2c2cc(C=NNc3cc(C)nc4ccccc34)ccc21 has measured inhibition at 5 µM not below 20%. Thanks!
A) class 1

Q) Is inhibition at 5 µM for Cc1ccccc1Nc1cc(Nc2ccccc2C)c2ccccc2n1 at or above 20%?
A) class 1

Q) Tell me whether inhibition at 5 µM is at least 20% here: CCOc1ccc2c(NN=Cc3ccc(OC)c(OC)c3)cc(C)nc2c1
A) class 1

Q) hey, is inhibition at 5 µM for this one >= 20%? CC(C)NCc1cc(Nc2ccnc3cc(Cl)ccc23)ccc1O
A) class 0

Q) Entry CC(C)NCC(O)COc1ccc(Cc2ccc(OCC(O)CNC(C)C)cc2)cc1 (stereo not shown) : is its inhibition at 5 µM no less than 20%?
A) class 1

Q) Quick check: does CCOc1ccc2c(NN=Cc3ccc(F)cc3)cc(C)nc2c1 have inhibition at 5 µM greater than or equal to 20%?
A) class 1

Q) Item Cc1cc(F)ccc1Nc1nc(N(C)c2ccccc2)c2cccc(O)c2n1 with inhibition at 5 µM of 20% or above?
A) class 0

Q) Record COc1ccc2c(NN=CC=Cc3ccccc3)cc(C)nc2c1 ; criterion: inhibition at 5 µM no lower than 20%. Met?
A) class 1

Q) Assess whether reported inhibition at 5 µM for O=C(OCc1ccccn1)c1nc2ccccc2[nH]1 sits at 20% or higher.
A) class 1

Q) Reported inhibition at 5 µM at or above 20%? Cc1cc(NN=Cc2ccc(F)cc2)c2cc(F)ccc2n1
A) class 0

====

# inhibition at 5 µM values compiled below
Test system: P. falciparum stage V gametocytes
Experiment: microbe, parasite or virus in culture
Set-up: BacTiter-Glo ATP luminescence viability of purified stage V gametocytes in 384-well plates, per cent inhibition versus DMSO
Conditions: Plasmodium falciparum, 48 h, read-out: % Inhibition
# number only, unit % dropped from output

molecule=CCCCc1ccc2[nH]cc(C(=O)OCC)c(=O)c2c1 unit_of_measurement=% numeric_result=33.5

Q) Tell us which inhibition at 5 µM value is on record for COc1cccc2c(N/N=C/c3cccc([N+](=O)[O-])c3)ccnc12
A) -28.6

Q) Name the recorded inhibition at 5 µM of the molecule listed here: Oc1ccc(Br)cc1-c1nc2ccc(Cl)cc2nc1-c1cc(Br)ccc1O
A) 82.4

Q) State its inhibition at 5 µM: FC(F)(F)c1ccc2nccc(NN=CC=Cc3ccccc3)c2c1
A) -25.7

Q) // Input: COc1ccc2nccc(NN=Cc3ccccc3[N+](=O)[O-])c2c1 . Output its inhibition at 5 µM only.
A) 27.9

Q) Return inhibition at 5 µM for the following molecule: CC(C)(C)c1cc([N+](=O)[O-])cc(C(=O)Nc2ccccc2C(F)(F)F)c1O
A) -4.47

Q) State its inhibition at 5 µM: Cc1cc(NN=Cc2cccc(F)c2)c2cc(F)ccc2n1
A) -60.6

Q) Tell me its inhibition at 5 µM given CCCCCCCCNCC(O)c1cc(-c2ccc(Cl)cc2)nc2cc(C)ccc12 (stereo not drawn) as the entry.
A) -7.88

Q) Tell us which inhibition at 5 µM value is on record for Cc1[nH]cnc1CSCCNC(N)=NCCCCCCCCN=C(N)NCCSCc1nc[nH]c1C
A) -5.19
